These entries and their values trace back to patent US12421205B2.

subject-of-test: hERG (Homo sapiens, UniProt Q12809)
Construct: purchased Invitrogen PV5365
Sequence (Q12809 whole entry): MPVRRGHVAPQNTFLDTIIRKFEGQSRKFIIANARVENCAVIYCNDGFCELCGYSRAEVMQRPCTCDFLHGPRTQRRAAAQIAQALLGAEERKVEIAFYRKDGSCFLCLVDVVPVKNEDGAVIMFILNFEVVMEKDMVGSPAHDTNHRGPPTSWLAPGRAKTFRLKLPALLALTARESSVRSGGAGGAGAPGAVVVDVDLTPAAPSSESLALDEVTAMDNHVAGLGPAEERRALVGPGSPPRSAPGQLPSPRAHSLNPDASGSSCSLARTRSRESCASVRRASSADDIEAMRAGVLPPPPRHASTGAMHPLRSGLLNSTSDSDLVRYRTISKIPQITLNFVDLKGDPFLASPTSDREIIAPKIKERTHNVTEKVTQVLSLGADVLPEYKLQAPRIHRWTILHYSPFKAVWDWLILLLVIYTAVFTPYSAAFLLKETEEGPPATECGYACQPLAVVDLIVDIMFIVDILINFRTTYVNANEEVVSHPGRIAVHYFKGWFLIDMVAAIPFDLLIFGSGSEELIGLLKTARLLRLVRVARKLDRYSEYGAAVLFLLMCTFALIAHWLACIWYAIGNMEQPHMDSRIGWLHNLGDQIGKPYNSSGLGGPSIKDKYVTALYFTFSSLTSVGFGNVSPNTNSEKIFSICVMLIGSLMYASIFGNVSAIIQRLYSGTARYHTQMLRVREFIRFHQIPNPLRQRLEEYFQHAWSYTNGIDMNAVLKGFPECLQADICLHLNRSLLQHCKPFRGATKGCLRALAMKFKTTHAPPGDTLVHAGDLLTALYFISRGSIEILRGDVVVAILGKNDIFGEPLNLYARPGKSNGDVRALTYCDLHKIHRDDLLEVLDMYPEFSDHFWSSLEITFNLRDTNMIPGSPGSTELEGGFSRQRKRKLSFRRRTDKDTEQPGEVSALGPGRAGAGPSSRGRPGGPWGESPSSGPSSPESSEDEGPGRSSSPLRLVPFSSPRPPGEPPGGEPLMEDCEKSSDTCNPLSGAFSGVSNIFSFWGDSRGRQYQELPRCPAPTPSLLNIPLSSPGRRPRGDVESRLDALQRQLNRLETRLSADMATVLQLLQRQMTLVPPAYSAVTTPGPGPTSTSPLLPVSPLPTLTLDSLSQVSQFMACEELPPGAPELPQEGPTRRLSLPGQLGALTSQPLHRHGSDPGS
protocol-summary: hERG inhibition test (Predictor hERG Fluorescence Polarization assay kit)
Type: binding
particulars: probe kit Tracer (fluorescent hERG ligand), hERG % inhibition at 10 uM, relative to E-4031 and solvent control
measured-attribute: inhibition at 2.5 h, 10 µM (%)

>>> value_measured("N#Cc1ccc(COc2cccc(-c3ccc(Cc4nc5ccc(C(=O)O)cc5n4CC4CCCO4)cc3)c2)c(F)c1 (centres unmarked) [Example 8]")
4.01
>>> value_measured("O=C(O)c1ccc2nc(Cc3ccc(-c4cccc(OCc5cc(F)cc(Cl)c5)n4)c(F)c3)n(CC3CCCO3)c2c1 (centres unmarked) [Example 100]")
-10.2
>>> value_measured("N#Cc1ccc(COc2cccc(-c3cc(F)c(Cc4nc5ccc(C(=O)O)cc5n4CC4CCCO4)cc3F)n2)c(F)c1 (centres unmarked) [Example 71]")
-2.52
>>> value_measured("O=C(O)c1ccc2nc(Cc3ccc(-c4cccc(OCc5ccc(Cl)cc5F)n4)c(F)c3)n(CCF)c2c1 [Example 55]")
35.4
>>> value_measured("COCCn1c(Cc2ccc(-c3cccc(COc4ccc(Cl)cc4F)n3)cc2[N+](=O)[O-])nc2ccc(C(=O)O)cc21 [Example 7]")
1.63
>>> value_measured("O=C(O)c1ccc2nc(Cc3ccc(-c4cccc(OCc5ccc(Cl)cc5F)n4)cc3F)n(Cc3cccs3)c2c1 [Example 49]")
12.5
>>> value_measured("N#Cc1ccc(COc2cccc(-c3cc(F)c(Cc4nc5ccc(C(=O)O)cc5n4C[C@@H]4CCCO4)cc3F)n2)c(F)c1 [Example 120]")
-3.82
>>> value_measured("O=C(O)c1ccc2nc(Cn3ccc(-c4cccc(OCc5ccc(Cl)cc5F)c4)cc3=O)n(CC3CCCO3)c2c1 (centres unmarked) [Example 106]")
-2.71
>>> value_measured("COCCn1c(Cc2ccc(-c3cccc(OCc4ccc(Cl)cc4F)n3)cc2F)nc2ccc(C(=O)O)cc21 [Example 3]")
8.39
>>> value_measured("O=C(O)c1ccc2nc(Cc3ccc(-c4cccc(OCc5ccc(Cl)cc5F)c4)cc3F)n(C[C@H]3CCCO3)c2c1 [Example 41]")
-16
>>> value_measured("COCCn1c(Cc2ccc(-c3cccc(OCc4ccc(C#N)cc4F)c3)c(F)c2)nc2ccc(C(=O)O)cc21 [Example 40]")
6.91
>>> value_measured("O=C(O)c1ccc2nc(Cc3ccc(-c4cccc(OCc5ccc(Cl)cc5F)n4)c(F)c3)n(C[C@H]3CCCO3)c2c1 [Example 52]")
24.2
>>> value_measured("N#Cc1ccc(COc2cccc(-c3ccc(Cc4nc5ccc(C(=O)O)cc5n4CCF)c(F)c3)n2)c(F)c1 [Example 44]")
1.77
>>> value_measured("N#Cc1ccc(COc2cccc(-c3cc(F)c(Cc4nc5ccc(C(=O)O)cc5n4C[C@@H]4CCO4)cc3F)n2)c(F)c1 [Example 115]")
-2.45

----------
subject-of-test: human GLP-1 receptor (Homo sapiens, UniProt P43220)
Construct: host or cells: CHO-K1
Sequence (P43220 24-463): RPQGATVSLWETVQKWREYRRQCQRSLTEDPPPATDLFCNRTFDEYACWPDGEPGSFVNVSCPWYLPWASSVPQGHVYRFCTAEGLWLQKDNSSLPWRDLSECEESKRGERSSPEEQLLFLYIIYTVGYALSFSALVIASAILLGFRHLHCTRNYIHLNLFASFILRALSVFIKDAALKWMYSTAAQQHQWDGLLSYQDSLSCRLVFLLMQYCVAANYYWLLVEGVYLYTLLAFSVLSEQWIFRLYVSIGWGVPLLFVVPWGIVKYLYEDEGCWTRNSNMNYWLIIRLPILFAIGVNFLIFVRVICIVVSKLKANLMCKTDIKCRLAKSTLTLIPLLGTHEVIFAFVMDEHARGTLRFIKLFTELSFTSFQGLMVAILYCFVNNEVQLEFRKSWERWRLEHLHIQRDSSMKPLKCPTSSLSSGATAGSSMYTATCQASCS
protocol-summary: cAMP activity test (cAMP dynamic HTRF kit) in CHO-K1/GLP-1 receptor-expressing cells
Type: cell-based
particulars: cAMP activity, CHO-K1/GLP-1 receptor-expressing cells; read-out: EC50
Consider the cut-off 40 nM. If the recorded EC50 is strictly smaller, the label is t; if not, the label is f.

>>> label_value("O=C(O)c1ccc2nc(Cc3ccc(-c4cccc(OCc5ccc(Cl)cc5F)c4)cc3F)n(CC3CCCO3)c2c1 (stereo not shown)")
"f"
>>> label_value("COCCn1c(Cc2ccc(-c3cccc(OCc4ccc(C#N)cc4F)n3)cc2F)nc2ccc(C(=O)O)cc21")
"f"
>>> label_value("N#Cc1ccc(COc2cccc(-c3ccc(Cc4nc5ccc(C(=O)O)cc5n4CC4CCCO4)c(F)c3F)n2)c(F)c1 (stereo not shown)")
"t"
>>> label_value("N#Cc1ccc(COc2cccc(-c3ccc(Cc4nc5ccc(C(=O)O)cc5n4C[C@@H]4CCO4)cc3F)n2)cc1")
"t"
>>> label_value("O=C(O)c1ccc2nc(Cc3ccc(-c4cccc(OCc5ccc(Cl)cc5F)n4)c(F)c3)n(CC3CCCO3)c2c1 (stereo not shown)")
"t"
>>> label_value("O=C(O)c1ccc2nc(Cc3ccc(-c4cccc(OCc5ccc(F)c(F)c5)n4)cc3F)n(CC3CCCO3)c2c1 (stereo not shown)")
"f"
>>> label_value("N#Cc1ccc(COc2cccc(-c3ccc(Cc4nc5ccc(C(=O)O)cc5n4CCF)c(F)c3)n2)c(F)c1")
"f"

----------
subject-of-test: human GLP-1 receptor (Homo sapiens)
Construct: host or cells: CHO-K1
protocol-summary: cAMP activity test (cAMP dynamic HTRF kit) in CHO-K1/GLP-1 receptor-expressing cells
Type: cell-based
particulars: cAMP activity, CHO-K1/GLP-1 receptor-expressing cells; read-out: EC50
pEC50: −log10 of the molar value.
measured-attribute: pEC50

>>> value_measured("COCCn1c(Cc2ccc(-c3cccc(OCc4ccc(Cl)cc4F)n3)c(F)c2)nc2ccc(C(=O)O)cc21 [Example 6]")
7.60
>>> value_measured("COCCn1c(Cc2ccc(-c3cccc(OCc4ccc(Cl)cc4F)n3)c(C)c2)nc2ccc(C(=O)O)cc21 [Example 4]")
6.70
>>> value_measured("O=C(O)c1ccc2nc(Cc3ccc(-c4cccc(COc5ccc(Cl)cc5F)n4)cc3F)n(C[C@H]3CCCO3)c2c1 [Example 45]")
5.43
>>> value_measured("O=C(O)c1ccc2nc(Cc3ccc(-c4cccc(OCc5ccc(Cl)cc5F)c4)cc3F)n(C[C@H]3CCCO3)c2c1 [Example 41]")
6.96
>>> value_measured("N#Cc1ccc(COc2cccc(-c3ccn(Cc4nc5ccc(C(=O)O)cc5n4C[C@@H]4CCCO4)c(=O)c3)n2)c(F)c1 [Example 109]")
6.89
>>> value_measured("O=C(O)c1ccc2nc(Cc3ccc(-c4cccc(OCc5ccc(Cl)cc5F)c4)c(F)c3)n(C[C@H]3CCCO3)c2c1 [Example 42]")
6.60
>>> value_measured("COCCn1c(Cc2ccc(-c3cccc(OCc4ccc(C#N)cc4F)n3)cc2)nc2ccc(C(=O)O)cc21 [Example 20]")
6.62
>>> value_measured("O=C(O)c1ccc2nc(Cn3ccc(-c4cccc(OCc5ccc(Cl)cc5F)n4)cc3=O)n(CC3CCO3)c2c1 (stereo not shown) [Example 127]")
7.70
>>> value_measured("O=C(O)c1ccc2nc(Cc3ccc(-c4cccc(OCc5ccc(Cl)cc5F)n4)cc3F)n(CC3CCCO3)c2c1 (stereo not shown) [Example 17]")
8.09
>>> value_measured("COCCn1c(Cc2ccc(-c3cccc(OCc4ccc(Cl)cc4F)c3)cc2F)nc2ccc(C(=O)O)cc21 [Example 36]")
7.06
>>> value_measured("O=C(O)c1ccc2nc(Cc3ccc(-c4cccc(OCc5ccc(Cl)cc5F)n4)cc3F)n(Cc3ccco3)c2c1 [Example 13]")
7.46
>>> value_measured("O=C(O)c1ccc2nc(Cc3ccc(-c4ccc(F)c(OCc5ccc(Cl)cc5F)n4)cc3F)n(CC3CCCO3)c2c1 (stereo not shown) [Example 91]")
8.14
>>> value_measured("COCCn1c(Cc2c(F)cc(-c3cccc(OCc4ccc(Cl)cc4F)n3)cc2F)nc2ccc(C(=O)O)cc21 [Example 37]")
7.89
>>> value_measured("COCCn1c(Cc2ccc(-c3cccc(OCc4ccc(C#N)cc4F)c3)c(F)c2)nc2ccc(C(=O)O)cc21 [Example 40]")
6.59
>>> value_measured("COCCn1c(Cc2ccc(-c3cccc(OCc4ccc(Cl)cc4F)c3)c(F)c2)nc2ccc(C(=O)O)cc21 [Example 39]")
6.60
>>> value_measured("COc1cccc(COc2cccc(-c3ccc(Cc4nc5ccc(C(=O)O)cc5n4Cc4ccco4)nc3)c2)c1 [Example 23]")
6.21
>>> value_measured("N#Cc1ccc(COc2cccc(-c3ccc(Cc4nc5ccc(C(=O)O)cc5n4Cc4ccco4)cc3)n2)c(F)c1 [Example 18]")
6.96
>>> value_measured("COCCn1c(Cc2ccc(-c3cccc(OCc4ccc(C#N)cc4F)c3)cc2F)nc2ccc(C(=O)O)cc21 [Example 26]")
6.57
>>> value_measured("COc1cc(-c2cccc(OCc3ccc(Cl)cc3F)n2)ccc1Cc1nc2ccc(C(=O)O)cc2n1CC1CCCO1 (stereo not shown) [Example 63]")
6.80
>>> value_measured("O=C(O)c1ccc2nc(Cc3ccc(-c4cccc(OCc5ccc(Cl)cc5F)c4)cc3F)n(Cc3cnco3)c2c1 [Example 32]")
7.49
>>> value_measured("O=C(O)c1ccc2nc(Cc3ccc(-c4cccc(OCc5ccc(Cl)cc5F)c4)cc3F)n(CCF)c2c1 [Example 56]")
6.10
>>> value_measured("O=C(O)c1ccc2nc(Cc3ccc(-c4cccc(OCc5ccc(Br)cc5F)n4)cc3F)n(CC3CCCO3)c2c1 (stereo not shown) [Example 89]")
7.96
>>> value_measured("N#Cc1ccc(COc2cc(-c3ccc(Cc4nc5ccc(C(=O)O)cc5n4CC4CCCO4)cc3F)ccc2F)c(F)c1 (stereo not shown) [Example 93]")
5.96
>>> value_measured("COCCn1c(Cc2c(F)cc(-c3cccc(OCc4ccc(Cl)cc4F)c3)cc2F)nc2ccc(C(=O)O)cc21 [Example 48]")
7.38
>>> value_measured("N#Cc1ccc(COc2cccc(-c3ccc(Cc4nc5ccc(C(=O)O)cc5n4Cc4ccco4)c(F)c3)c2)c(F)c1 [Example 28]")
6.89
